System: MCF-7
Protocol Description: MTT cytotoxicity assay, MCF-7
Run Parameters: MCF7, 25ug
Each entry belongs to exactly one class, chosen by where its % viability falls: L: < 40%; M: ≥ 40% and < 50%; H: ≥ 50%

Ask: In plain terms, what class is O=C(COc1ccc2c(COC(=O)c3ccccc3)cc(=O)oc2c1)c1ccc(Cl)cc1 [Compound 8] ?
Reply: L

Ask: Please indicate the class for COc1ccccc1C(=O)OCc1cc(=O)oc2cc(OC(C)=O)ccc12 [Compound 15] based on its % viability.
Reply: M

Ask: Hello team, could you let me know which band the following compound falls into: O=C(COc1ccc2c(COC(=O)c3ccc(Cl)cc3)cc(=O)oc2c1)c1ccc(Cl)cc1 [Compound 10]
Reply: H

Ask: Bin? O=C(OCc1cc(=O)oc2cc(O)ccc12)c1ccccc1 [Compound 2]
Reply: L

Ask: Note: place this compound into its band. Item: COc1ccccc1C(=O)OCc1cc(=O)oc2cc(OCC(=O)c3ccccc3)ccc12 [Compound 11]
Reply: H

Ask: State the class of the compound shown: O=C(COc1ccc2c(COC(=O)c3ccc(Cl)cc3)cc(=O)oc2c1)c1ccccc1 [Compound 9]
Reply: H

Ask: For this compound, which bin applies? O=C(COc1ccc2c(CCl)cc(=O)oc2c1)c1ccc(Cl)cc1 [Compound 6]
Reply: H

Ask: Record CC(=O)Oc1ccc2c(COC(=O)c3ccccc3)cc(=O)oc2c1 [Compound 13] — which class?
Reply: H

Ask: Lab note: sort CC(=O)Oc1ccc2c(COC(=O)c3ccc(Cl)cc3)cc(=O)oc2c1 [Compound 14] into the matching % viability band.
Reply: H

Ask: Hi there! Could you help me figure out the category for O=C(COc1ccc2c(COC(=O)c3ccccc3)cc(=O)oc2c1)c1ccccc1 [Compound 7] please?
Reply: H

Ask: Which class holds O=C(COc1ccc2c(CCl)cc(=O)oc2c1)c1ccccc1 [Compound 5] ?
Reply: M

Ask: Each compound maps to one class by % viability. Which class for O=C(OCc1cc(=O)oc2cc(O)ccc12)c1ccc(Cl)cc1 [Compound 3] ?
Reply: M

Ask: Place this compound in its band: COc1cccc2c1C(=O)c1c(O)c3c(c(O)c1C2=O)C[C@@](O)(C(=O)CO)C[C@@H]3O[C@H]1C[C@H](N)[C@H](O)[C@H](C)O1 [Doxorubicin, reference compound]
Reply: L

Ask: Which % viability band matches COc1ccccc1C(=O)OCc1cc(=O)oc2cc(OCC(=O)c3ccc(Cl)cc3)ccc12 [Compound 12] ?
Reply: M

====

Test Target: UniProt:P00533
Protocol Description: In vitro EGFR enzyme inhibition assay (ELISA)
Run Parameters: reference Erlotinib
Answer each item with its documented Percentage above Reference IC50 (potency relative to erlotinib).
Please reply with the bare figure in % and do not write the unit itself.

Entry O=C(COc1ccc2c(COC(=O)c3ccccc3)cc(=O)oc2c1)c1ccccc1 , Percentage above Reference IC50 (potency relative to erlotinib) reported as 24.633

The recorded Percentage above Reference IC50 (potency relative to erlotinib) for entry CC(=O)Oc1ccc2c(COC(=O)c3ccc(Cl)cc3)cc(=O)oc2c1 equals 5.942

O=C(OCc1cc(=O)oc2cc(O)ccc12)c1ccccc1 has a reported Percentage above Reference IC50 (potency relative to erlotinib) of 9.722

// sample O=C(COc1ccc2c(COC(=O)c3ccc(Cl)cc3)cc(=O)oc2c1)c1ccccc1 , its Percentage above Reference IC50 (potency relative to erlotinib) was 64.122

Value of measured Percentage above Reference IC50 (potency relative to erlotinib) for the entry O=C(COc1ccc2c(COC(=O)c3ccccc3)cc(=O)oc2c1)c1ccc(Cl)cc1 : 7.636

====

Kindly supply the reported EGFR %inh values for the records listed here.
Test Target: EGFR (Homo sapiens, UniProt P00533)
Sequence (P00533 25-1210): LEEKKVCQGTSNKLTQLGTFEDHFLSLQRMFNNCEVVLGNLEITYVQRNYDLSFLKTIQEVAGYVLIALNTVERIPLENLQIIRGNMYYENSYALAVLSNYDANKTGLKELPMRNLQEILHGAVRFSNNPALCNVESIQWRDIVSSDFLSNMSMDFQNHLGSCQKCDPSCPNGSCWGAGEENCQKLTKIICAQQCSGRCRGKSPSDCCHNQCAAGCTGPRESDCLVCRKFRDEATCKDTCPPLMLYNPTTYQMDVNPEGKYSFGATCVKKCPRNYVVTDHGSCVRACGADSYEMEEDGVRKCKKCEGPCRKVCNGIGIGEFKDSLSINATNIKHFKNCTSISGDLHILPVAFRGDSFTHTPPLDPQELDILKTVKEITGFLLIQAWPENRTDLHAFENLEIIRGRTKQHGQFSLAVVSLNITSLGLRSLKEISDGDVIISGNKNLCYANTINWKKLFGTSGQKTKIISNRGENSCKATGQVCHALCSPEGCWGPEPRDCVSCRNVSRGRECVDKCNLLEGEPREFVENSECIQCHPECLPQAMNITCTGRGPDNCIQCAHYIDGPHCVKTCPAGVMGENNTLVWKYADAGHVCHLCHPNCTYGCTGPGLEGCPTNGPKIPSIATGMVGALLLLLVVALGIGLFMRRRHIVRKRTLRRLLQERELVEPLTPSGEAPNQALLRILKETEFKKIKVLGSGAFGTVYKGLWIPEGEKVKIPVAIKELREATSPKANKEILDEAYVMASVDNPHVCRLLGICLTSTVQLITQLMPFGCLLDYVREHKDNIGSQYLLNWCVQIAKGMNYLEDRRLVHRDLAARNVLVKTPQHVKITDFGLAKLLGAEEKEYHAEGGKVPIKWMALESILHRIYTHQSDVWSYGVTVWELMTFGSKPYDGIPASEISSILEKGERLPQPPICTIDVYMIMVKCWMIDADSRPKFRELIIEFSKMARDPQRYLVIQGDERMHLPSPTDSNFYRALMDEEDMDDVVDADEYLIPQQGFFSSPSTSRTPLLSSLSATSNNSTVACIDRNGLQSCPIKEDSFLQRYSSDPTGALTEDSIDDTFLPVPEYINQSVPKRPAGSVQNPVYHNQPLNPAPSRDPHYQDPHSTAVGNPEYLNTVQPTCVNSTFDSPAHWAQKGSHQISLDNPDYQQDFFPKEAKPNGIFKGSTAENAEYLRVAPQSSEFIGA
Protocol Description: In vitro EGFR enzyme inhibition assay (ELISA)
Run Parameters: conc 0.1 (unit not given); lab report 01-11-2021
Report field: quantity (unit follows the number).

Summary for this compound, COc1ccccc1C(=O)OCc1cc(=O)oc2cc(O)ccc12 : EGFR %inh is 46%

# compound O=C(OCc1cc(=O)oc2cc(O)ccc12)c1ccccc1 ; its EGFR %inh = 41%

EGFR %inh recorded for this compound, O=C(OCc1cc(=O)oc2cc(O)ccc12)c1ccc(Cl)cc1 , is 36%

# compound O=C(COc1ccc2c(CCl)cc(=O)oc2c1)c1ccc(Cl)cc1 ; its EGFR %inh = 57%

Form: compound = O=C(COc1ccc2c(COC(=O)c3ccccc3)cc(=O)oc2c1)c1ccccc1 ; EGFR %inh = 42%

====

Test system: MCF-10A
Protocol Description: MTT cytotoxicity assay, nonmalignant MCF-10A;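 note: MTT assay with absorbance read at 570 nm after 48 h exposure of cells to serial compound concentrations at 37 °C, testing selectivity against nonmalignant versus cancer cells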
Run Parameters: read-out: MCF-10A IC50; MTT, nonmalignant MCF-10A; listed as DOX
Parameter: pIC50
Friendly reminder that pIC50 comes from taking -log10 of the concentration in mol/L.

The recorded pIC50 for COc1cccc2c1C(=O)c1c(O)c3c(c(O)c1C2=O)C[C@@](O)(C(=O)CO)C[C@@H]3O[C@H]1C[C@H](N)[C@H](O)[C@H](C)O1 [Doxorubicin, reference compound] is 4.91

====

Tested on: MDA-MB-231
Protocol Description: MTT cytotoxicity assay, MDA-MB-231
Run Parameters: MDA, 6.25ug (log conc. 0.8)
Parameter: % viability (%)
All answers are understood in %, so give the number only.

In plain terms, COc1ccccc1C(=O)OCc1cc(=O)oc2cc(OCC(=O)c3ccccc3)ccc12 [Compound 11] has a documented % viability of 58.055

get_value(item= O=C(OCc1cc(=O)oc2cc(O)ccc12)c1ccc(Cl)cc1 [Compound 3] , readout=% viability) returns 58.685

% viability reported for this molecule O=C(COc1ccc2c(CCl)cc(=O)oc2c1)c1ccccc1 [Compound 5] : 42.019

% viability in this record for COc1ccccc1C(=O)OCc1cc(=O)oc2cc(OCC(=O)c3ccc(Cl)cc3)ccc12 [Compound 12] : 44.231

So, O=C(COc1ccc2c(COC(=O)c3ccc(Cl)cc3)cc(=O)oc2c1)c1ccc(Cl)cc1 [Compound 10] ? Its % viability was 40.274

The recorded % viability for entry CC(=O)Oc1ccc2c(COC(=O)c3ccc(Cl)cc3)cc(=O)oc2c1 [Compound 14] equals 34.773

Entry O=C(COc1ccc2c(COC(=O)c3ccccc3)cc(=O)oc2c1)c1ccccc1 [Compound 7] — recorded % viability = 59.243

For O=c1cc(CCl)c2ccc(O)cc2o1 [Compound 1, 4-chloromethyl-7-hydroxycoumarin] the molecule record lists % viability as 69.01

====

Test system: MCF-7
Protocol Description: MTT cytotoxicity assay, MCF-7
Run Parameters: MCF7, 100ug
Criterion: % viability strictly under 40%. Met: y. Not met: n.

Ask: Please let me know if O=C(COc1ccc2c(COC(=O)c3ccc(Cl)cc3)cc(=O)oc2c1)c1ccccc1 shows % viability below 40%.
Reply: n

Ask: # TODO verify % viability < 40% strictly for this molecule: O=C(OCc1cc(=O)oc2cc(O)ccc12)c1ccc(Cl)cc1
Reply: y

Ask: Is 40% strictly greater than the molecule's reported % viability? molecule: CC(=O)Oc1ccc2c(COC(=O)c3ccc(Cl)cc3)cc(=O)oc2c1
Reply: n

Ask: Below 40% on % viability? Entry O=C(COc1ccc2c(CCl)cc(=O)oc2c1)c1ccc(Cl)cc1
Reply: n

Ask: hey, is % viability for O=C(COc1ccc2c(COC(=O)c3ccc(Cl)cc3)cc(=O)oc2c1)c1ccc(Cl)cc1 lower than 40% or not?
Reply: n

Ask: Dear reviewer, please state whether COc1ccccc1C(=O)OCc1cc(=O)oc2cc(OCC(=O)c3ccccc3)ccc12 has % viability strictly beneath 40%.
Reply: n

Ask: I'd appreciate it if you could check whether O=C(COc1ccc2c(COC(=O)c3ccccc3)cc(=O)oc2c1)c1ccc(Cl)cc1 has % viability smaller than 40%.
Reply: y

Ask: Problem: For the molecule COc1ccccc1C(=O)OCc1cc(=O)oc2cc(OC(C)=O)ccc12 , is % viability under 40%?
Reply: y

Ask: Please check: % viability for COc1cccc2c1C(=O)c1c(O)c3c(c(O)c1C2=O)C[C@@](O)(C(=O)CO)C[C@@H]3O[C@H]1C[C@H](N)[C@H](O)[C@H](C)O1 [Doxorubicin, reference compound] , strictly under 40% or not?
Reply: y

Ask: # check: % viability < 40% for O=C(OCc1cc(=O)oc2cc(O)ccc12)c1ccccc1
Reply: y

Ask: % viability under 40%? Item: COc1ccccc1C(=O)OCc1cc(=O)oc2cc(OCC(=O)c3ccc(Cl)cc3)ccc12
Reply: y

Ask: In the record for O=C(COc1ccc2c(CCl)cc(=O)oc2c1)c1ccccc1 , is % viability less than 40%?
Reply: y

Ask: Regarding COc1ccccc1C(=O)OCc1cc(=O)oc2cc(O)ccc12 , kindly confirm whether its % viability is beneath 40%.
Reply: y
